- ASSAY_PROTOCOL: Plasma pharmacokinetics after inhalation (HPLC/MS/MS)
- Type: in vivo, human
- SETTINGS: human, plasma, inhaled or intranasal, 87.5 μg; on both days 1 and 7; inhaled; read-out: Mean Cmax
TEST_READOUT: Cmax

Cmax reported for this compound COc1cccc(Nc2c(C(N)=O)cnc3c(C)cc(S(=O)(=O)c4cccc(C(=O)N(C)C)c4)cc23)c1 : < 0.02 ng/mL

---

- ASSAY_PROTOCOL: Plasma pharmacokinetics after inhalation (HPLC/MS/MS)
- Format: in vivo, human
- SETTINGS: human, plasma, inhaled or intranasal, 87.5 ug, Day 7; inhaled 87.5 μg once daily; plasma; geometric mean (CV%); n = 17
TEST_READOUT: AUC(0-t) (ng·h/mL)
Only the number, expressed in ng·h/mL, is required.

The compound listed as COc1cccc(Nc2c(C(N)=O)cnc3c(C)cc(S(=O)(=O)c4cccc(C(=O)N(C)C)c4)cc23)c1 shows AUC(0-t) equal to 0.0648
